# SYSTEM: S. pneumoniae SPase I (Streptococcus pneumoniae serotype 4)
# Sequence (O07344 whole entry): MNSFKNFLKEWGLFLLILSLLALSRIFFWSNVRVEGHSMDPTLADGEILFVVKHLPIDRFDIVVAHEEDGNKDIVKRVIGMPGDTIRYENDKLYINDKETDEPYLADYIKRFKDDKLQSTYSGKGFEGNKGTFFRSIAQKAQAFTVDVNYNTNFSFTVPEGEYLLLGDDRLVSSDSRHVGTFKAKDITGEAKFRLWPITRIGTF
pIC50: −log10 of the molar value.
Collected pIC50 values appear next to each entry.
PARAMETER_MEASURED: pIC50

- COMPOUND: "CC(C)CCCCCCCCCCC(=O)N(C)C(CO)C(=O)NC(C)C(=O)NCC(=O)N(C)C1C(=O)NC(C)C(=O)NC(C(=O)O)Cc2ccc(O)c(c2)-c2cc1cc(O)c2OC1OC(C)C(O)C(O)C1O (centres unmarked)"
  ASSAY_RESULT: 4.60
- COMPOUND: "CCCCCCCCCCCCCCCC(=O)N(C)C(CO)C(=O)NC(C)C(=O)NCC(=O)N(C)C1C(=O)NC(C)C(=O)NC(C(=O)O)Cc2ccc(O)c(c2)-c2cc1cc(O)c2OC1OC(C)C(O)C(O)C1O (centres unmarked)"
  ASSAY_RESULT: 4.99
- COMPOUND: "CC(C)CCCCCCCCCCCCC(=O)N(C)C(CO)C(=O)NC(C)C(=O)NCC(=O)N(C)C1C(=O)NC(C)C(=O)NC(C(=O)O)Cc2ccc(O)c(c2)-c2cc1ccc2OC1OC(C)C(O)C(O)C1O (centres unmarked)"
  ASSAY_RESULT: 5.62
- COMPOUND: "CC(C)CCCCCCCCCCCCC(=O)N(C)C(CO)C(=O)NC(C)C(=O)NCC(=O)N(C)C1C(=O)NC(C)C(=O)NC(C(=O)O)Cc2ccc(O)c(c2)-c2cc1cc(O)c2OC1OC(C)C(O)C(O)C1O (centres unmarked)"
  ASSAY_RESULT: 5.15
- COMPOUND: "CC(C)CCCCCCCCCCCC(=O)N(C)C(CO)C(=O)NC(C)C(=O)NCC(=O)N(C)C1C(=O)NC(C)C(=O)NC(C(=O)O)Cc2ccc(O)c(c2)-c2cc1ccc2OC1OC(C)C(O)C(O)C1O (centres unmarked)"
  ASSAY_RESULT: 5.15
- COMPOUND: "CCCCCCCCCCCCCCC(=O)N(C)C(CO)C(=O)NC(C)C(=O)NCC(=O)N(C)C1C(=O)NC(C)C(=O)NC(C(=O)O)Cc2ccc(O)c(c2)-c2cc1ccc2OC1OC(C)C(O)C(O)C1O (centres unmarked)"
  ASSAY_RESULT: 5.23
- COMPOUND: "CC(C)CCCCCCCCCCC(=O)N(C)C(CO)C(=O)NC(C)C(=O)NCC(=O)N(C)C1C(=O)NC(C)C(=O)NC(C(=O)O)Cc2ccc(O)c(c2)-c2cc1ccc2OC1OC(C)C(O)C(O)C1O (centres unmarked)"
  ASSAY_RESULT: 5.21
- COMPOUND: "CCCCCCCCCCCCCC(=O)N(C)C(CO)C(=O)NC(C)C(=O)NCC(=O)N(C)C1C(=O)NC(C)C(=O)NC(C(=O)O)Cc2ccc(O)c(c2)-c2cc1ccc2OC1OC(C)C(O)C(O)C1O (centres unmarked)"
  ASSAY_RESULT: 5.18

----------
Recorded measurements of pKi, one per entry
# SYSTEM: E. coli SPase I (Escherichia coli, UniProt P00803, I81L)
# Construct: His-tag (inferred from vector pET15b cloned at NdeI/XhoI and Ni-NTA purification)
# ASSAY: Kinetic analysis by HPLC assay with non-fluorogenic peptide substrate
pKi: −log10 of the molar value.

- COMPOUND: "CC(C)CCCCCCCCCCCCC(=O)N(C)C(CO)C(=O)NC(C)C(=O)NCC(=O)N(C)C1C(=O)NC(C)C(=O)NC(C(=O)O)Cc2ccc(O)c(c2)-c2cc1ccc2OC1OC(C)C(O)C(O)C1O (stereo not shown)"
  SYSTEM: "E. coli SPase I (Escherichia coli, UniProt P00803, I81L)"
  pKi: 7.24
- COMPOUND: "CC(C)CCCCCCCCCCC(=O)N(C)C(CO)C(=O)NC(C)C(=O)NCC(=O)N(C)C1C(=O)NC(C)C(=O)NC(C(=O)O)Cc2ccc(O)c(c2)-c2cc1ccc2OC1OC(C)C(O)C(O)C1O (stereo not shown)"
  SYSTEM: "E. coli SPase I (Escherichia coli, UniProt P00803, I81L)"
  pKi: 7.30
- COMPOUND: "CCCCCCCCCCCCCCCC(=O)N(C)C(CO)C(=O)NC(C)C(=O)NCC(=O)N(C)C1C(=O)NC(C)C(=O)NC(C(=O)O)Cc2ccc(O)c(c2)-c2cc1cc(O)c2OC1OC(C)C(O)C(O)C1O (stereo not shown)"
  SYSTEM: "E. coli SPase I (Escherichia coli, UniProt P00803, I81L)"
  pKi: 6.80
- COMPOUND: "CC(C)CCCCCCCCCCC(=O)N(C)C(CO)C(=O)NC(C)C(=O)NCC(=O)N(C)C1C(=O)NC(C)C(=O)NC(C(=O)O)Cc2ccc(O)c(c2)-c2cc1cc(O)c2OC1OC(C)C(O)C(O)C1O (stereo not shown)"
  SYSTEM: "E. coli SPase I (Escherichia coli, UniProt P00803, I81L)"
  pKi: 6.96
